The reported measurements were obtained from patent US9140689B2.

# Test system: BaF3/FGFR2b wildtype cells
# Protocol details: BaF3/FGFR2b cell viability (ViaLight assay), wildtype
# Assay type: cell-based, murine
# Experimental parameters: Mus musculus, BaF3, 72 h, read-out: IC50 value in BaF3/FGFR2b wildtype
Readout type: IC50 (nM)

                                   molecule              assayed_system  readout_type  test_value
0  CCN(CC)CCCCNc1ncc2cc(-c3cc(OC)cc(OC)c3)c(NC(=O)NC(C)(C)C)nc2n1  BaF3/FGFR2b wildtype cells          IC50         4.5
